Study target: NS3 protease (Hepacivirus C, UniProt C1KIQ2, R155I)
Sequence (C1KIQ2 entry or part of it R155I): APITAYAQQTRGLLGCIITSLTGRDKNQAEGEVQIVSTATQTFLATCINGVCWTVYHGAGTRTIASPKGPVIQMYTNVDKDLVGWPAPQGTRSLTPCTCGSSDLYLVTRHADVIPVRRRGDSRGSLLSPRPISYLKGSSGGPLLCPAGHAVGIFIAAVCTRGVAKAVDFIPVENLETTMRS
Protocol: Inhibition of HCV 1a NS3-4A R155I mutant protease after 60 mins
Measurement type: IC50 (nM)
Give the value in nM but do not write nM after it.

Value of measured IC50 for the entry CCC[C@H](NC(=O)[C@@H]1[C@H]2CCC[C@H]2CN1C(=O)[C@@H](NC(=O)[C@@H](NC(=O)c1cnccn1)C1CCCCC1)C(C)(C)C)C(=O)C(=O)NC1CC1 : 880

###

Tested on: Hepatitis C virus
Protocol: Antiviral activity against HCV 1b with NS3-4A R155I mutation in human Huh7 cells after 48 hrs by replicon cell assay
Type: functional, organism-based, Hepacivirus hominis
Experimental setup: genotype 1b, Huh-7, 48 h
Measurement type: IC50 (µM)
A number alone suffices; assume µM.

For reference, reported IC50 for CCC[C@H](NC(=O)[C@@H]1[C@H]2CCC[C@H]2CN1C(=O)[C@@H](NC(=O)[C@@H](NC(=O)c1cnccn1)C1CCCCC1)C(C)(C)C)C(=O)C(=O)NC1CC1 stands at 11.7

###

Study target: NS3 protease (Hepacivirus C, UniProt C1KIQ2, R155K)
Sequence (C1KIQ2 entry or part of it R155K): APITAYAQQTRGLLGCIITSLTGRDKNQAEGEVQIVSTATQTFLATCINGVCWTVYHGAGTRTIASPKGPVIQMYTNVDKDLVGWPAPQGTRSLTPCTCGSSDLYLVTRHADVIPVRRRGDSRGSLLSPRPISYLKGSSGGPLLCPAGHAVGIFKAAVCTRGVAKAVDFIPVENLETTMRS
Protocol: Inhibition of HCV 1a NS3-4A R155K mutant protease after 60 mins
Measurement type: IC50
Respond with the figure and its unit, in that order.

IC50 recorded for this compound, CCC[C@H](NC(=O)[C@@H]1[C@H]2CCC[C@H]2CN1C(=O)[C@@H](NC(=O)[C@@H](NC(=O)c1cnccn1)C1CCCCC1)C(C)(C)C)C(=O)C(=O)NC1CC1 , is 510 nM

###

Test system: Hepatitis C virus
Protocol: Antiviral activity against HCV 1b with NS3-4A R155T mutation in human Huh7 cells after 48 hrs by replicon cell assay
Type: functional, organism-based, Hepacivirus hominis
Experimental setup: genotype 1b, Huh-7, 48 h
Measurement type: pIC50
Here pIC50 is given on a logarithmic scale as minus log10 of the concentration in mol/L.

Recorded pIC50 (compound CCC[C@H](NC(=O)[C@@H]1[C@H]2CCC[C@H]2CN1C(=O)[C@@H](NC(=O)[C@@H](NC(=O)c1cnccn1)C1CCCCC1)C(C)(C)C)C(=O)C(=O)NC1CC1 ): 5.70

###

Study target: NS3 protease (Hepacivirus C, UniProt C1KIQ2, R155S)
Sequence (C1KIQ2 entry or part of it R155S): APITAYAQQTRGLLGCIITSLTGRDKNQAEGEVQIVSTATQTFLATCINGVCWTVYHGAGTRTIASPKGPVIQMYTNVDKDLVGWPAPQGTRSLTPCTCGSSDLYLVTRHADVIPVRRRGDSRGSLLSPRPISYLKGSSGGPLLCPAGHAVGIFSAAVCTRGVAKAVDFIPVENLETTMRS
Protocol: Inhibition of HCV 1a NS3-4A protease R155S mutant after 60 mins
Measurement type: IC50 (nM)
Field: numeric (nM). Do not append units.

For record CCC[C@H](NC(=O)[C@@H]1[C@H]2CCC[C@H]2CN1C(=O)[C@@H](NC(=O)[C@@H](NC(=O)c1cnccn1)C1CCCCC1)C(C)(C)C)C(=O)C(=O)NC1CC1 the listed IC50 is 1150
